The reader will find reported z-score values listed item by item below.
experiment: basal 3T3-L1 adipocyte mitochondrial potential changes, profiling panel, cell-based, JC-1 fluorescence, 3T3-L1 adipocytes, 24 h, 100 nL compound (AID 1168); conditions: JC-1 mitochondrial fluorescence, higher = more signal, called active from +8 up or from −8 down; further: test concentration not given here
// no unit, no text: just the number

INSERT INTO results (compound, value) VALUES
  ('COc1ccc(CCN2C(=O)[C@@]3(c4ccc([N+](=O)[O-])cc4)CC(=O)N(C4CCCCC4)[C@@H]3c3ccc(CO)cc32)cc1', -0.937),
  ('CCCCCCC#C[Si](O[C@H](c1ccccc1)c1cn([C@H](CO)Cc2ccccc2)nn1)(C(C)C)C(C)C', -0.94),
  ('[N-]=[N+]=Nc1ccccc1C[C@]1(C(=O)NCC(O)CO)N=C(c2ccc(OCCCO)cc2)O[C@H]1c1ccccc1N=[N+]=[N-] (some centres undefined)', 0.153);

Now, please, on to the next compound.
Output z-score of CO[C@H]1O[C@H](CO)[C@@H](OC(=O)Nc2ccc(Br)cc2)[C@H](OC(=O)c2cc3ccccc3[nH]2)[C@H]1OC(=O)c1cc2ccccc2[nH]1
2.37

* * *

// reported z-score for each item listed
experiment: MM1S cell viability effects, profiling panel, calcein-AM fluorescence, 48 h, basal (AID 1165); conditions: higher = more signal;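 further: viability of MM1S multiple myeloma cells under basal unstimulated conditions; test concentration not given here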
A bare number is all that is needed in reply.

Guide cases for z-score, answers given:
INSERT INTO results (compound, value) VALUES
  ('COc1ccc(CCNC(=O)[C@@]2(Sc3ccc(C)cc3)CC(=O)N(C3CCCCC3)[C@@H]2c2ccc(CO)cc2I)cc1', -2.14),
  ('O=C1C2C=CC(C(O)C3CCCCC3)N(Nc3ccc([N+](=O)[O-])cc3)C2C(=O)N1c1ccccc1 (centres undefined)', -0.157),
  ('CC(C)(C)OC(=O)CC[C@]1(C(=O)NCC(O)CO)COC(c2ccc(OCCCO)cc2)=N1 (some centres undefined)', -1.01),
  ('COC(=O)c1c(CC[C@@H](CO)NC(=O)N[C@@H](C)Cn2cc(C3(O)CCCCC3)nn2)oc(C(C)=O)c1C(=O)OC', 0.0508),
  ('CN(C)CCCCCCNC(=O)[C@@H]1C[C@@H]2C(=O)N[C@@H](CCCCN)C(=O)N2[C@@H]1c1cccc(OCCO)c1', -0.137);

State its z-score: COc1ccc([Si](C)(C)[C@@H]2[C@@H](CCO)O[C@]3(C(=O)N(Cc4ccc(N5C(=O)COc6ccccc65)cc4)c4ccccc43)[C@H]2C)cc1
-2.41

Please list z-score recorded for the compound Cc1ccc(S[C@]2(C(=O)NCC(C)C)CC(=O)N(Cc3cc(C(F)(F)F)cc(C(F)(F)F)c3)[C@@H]2c2ccc(CO)cc2I)cc1
-3.16

For the compound C=CCN(Cc1ccccc1)C(=O)C(c1cccs1)N(CCOCCO)C(=O)/C=C\C(=O)O (centres undefined) , give its measured z-score value.
1.62

* * *

experiment: basal 3T3-L1 adipocyte mitochondrial potential changes, profiling panel, cell-based, JC-1 fluorescence, 3T3-L1 adipocytes, 24 h, 100 nL compound (AID 1168); details: JC-1 mitochondrial fluorescence, higher = more signal, called active from +8 up or from −8 down; further: test concentration not given here
Would you mind labelling by z-score? At or over -0.8 is criterion met, under is criterion not met.

Please review the following examples before continuing.
INSERT INTO assay_data (compound, label) VALUES
  ('COC(=O)c1c(CC[C@@H](CO)NC(=O)N2CCC[C@H]2Cn2cc(-c3ccccn3)nn2)oc(C(C)=O)c1C(=O)OC', 'criterion not met'),
  ('CC(C)C[C@@H]1NC(=O)[C@H]2C[C@@H](C(=O)NCCCCCCN)[C@@H](c3ccc(O)cc3)N2C1=O', 'criterion met'),
  ('NC(=O)[C@@H]1[C@H]2C(=O)O[C@H](c3ccccc3)[C@H](c3ccccc3)N2[C@H](c2ccc(O)cc2)[C@@]12C(=O)Nc1ccc(C#CC3(O)CCCCCC3)cc12', 'criterion not met'),
  ('COC(=O)[C@@]1(Cc2ccc(F)cc2)[C@@H]2[C@@H](CC(=O)[C@H]2CC(=O)C(=O)N(C)C)CN1C(=O)c1ccccc1', 'criterion met'),
  ('C[C@@H]1ON(c2cccc(C(=O)OC(C)(C)C)c2)[C@H](c2ccc(Br)cc2)[C@H]1C(=O)N1C(=O)OC[C@H]1Cc1ccccc1', 'criterion met');

--- query ---
Is z-score at least -0.8? Consider COc1ccc(C(O)C2C=CC3C(=O)NC(=O)C3N2Nc2ccccn2)c2ccccc12 (configuration not stated)
criterion met

* * *

assay: small-molecule microarray binders of probe aEGFR, primary screen, biochemical, biotinylated probe, 635/667 nm fluorescence (AID 1097); details: higher = more signal;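 further: probe is a biotinylated anti-EGFR antibody binding compounds printed on slides; score combines fluorescence near 667 nm and signal to noise of each spot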
The threshold is inclusive: composite z-score of exactly -0.004 counts as fulfilled; values below receive not fulfilled.

INSERT INTO measurements (compound, label) VALUES
  ('CCc1oc(CC[C@@H](CO)NC(=O)NCCn2cc(C3(O)CCCCC3)nn2)c(C(=O)OC)c1C(=O)OC', 'fulfilled'),
  ('COCCOC(=O)N1C(=O)[C@@]2(c3cc(C#CC4(O)CCCCCC4)ccc31)[C@H](c1ccc(O)cc1)N1[C@H](c3ccccc3)[C@H](c3ccccc3)OC(=O)[C@H]1[C@@H]2C(=O)Nc1nc2ccccc2s1', 'fulfilled'),
  ('C=CC[C@]1(C(=O)NCCCOC)N=C(c2ccc(OCCCO)cc2)O[C@H]1c1ccccc1N=[N+]=[N-]', 'not fulfilled'),
  ('C=CC[C@]12N=C(c3ccc(OCCCO)cc3)O[C@H]1c1ccccc1N(Cc1ccccc1)C2=O', 'not fulfilled'),
  ('C=C[C@H](COC(C)=O)N(C(=O)OC(C)(C)C)S(=O)(=O)c1ccc(Br)cc1', 'fulfilled');

Let's switch to this compound now.
Is it the case that CCCC[C@@H]1C[C@H]1[C@@H](NC(=O)c1ccco1)c1ccc(Cl)cc1 has composite z-score reaching or exceeding -0.004?
fulfilled

* * *

tested on: Plasmodium falciparum Sir2 (PF13_0152, Sir2A); assay: pfSir2 binders on small-molecule microarrays, primary screen, biochemical, small-molecule microarray, 635 nm fluorescence (AID 1098); settings: small-molecule microarray binding, fluorescence 635 nm; higher = more signal;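 further: score merges spot fluorescence intensity with its signal-to-noise ratio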
reported metric: composite z-score
Answer with a number only.

INSERT INTO assay_data (compound_structure_string, system_under_test, value) VALUES
  ('O=C1O[C@H](c2ccccc2)[C@H](c2ccccc2)N2[C@H]1[C@@H](C(=O)O)[C@]1(C(=O)Nc3ccc(C#CC4=CCCCC4)cc31)[C@H]2c1ccccc1OCCO', 'Plasmodium falciparum Sir2 (PF13_0152, Sir2A)', 1.49),
  ('C=CCOC(=O)[C@@H]1[C@H]2C(=O)O[C@H](c3ccccc3)[C@H](c3ccccc3)N2[C@H](c2ccc(OCCOC(=O)[C@@H]3C[C@@H]4C(=O)N5CCC[C@H]5C(=O)N4[C@@H]3c3ccc(O)cc3)cc2)[C@@]12C(=O)Nc1ccc(I)cc12', 'Plasmodium falciparum Sir2 (PF13_0152, Sir2A)', 0.544);

Next compound, composite z-score to be filled in.
# return composite z-score of CN(C)CCCCCCNC(=O)[C@@H]1C[C@@H]2C(=O)N[C@@H](CCCCN)C(=O)N2[C@@H]1c1cccc(OCCO)c1 (system: Plasmodium falciparum Sir2 (PF13_0152, Sir2A))
1.96

* * *

experiment: small-molecule microarray binders of probe aXIP, primary screen, biochemical, NeuroSMM set, 635/667 nm fluorescence (AID 1119); settings: higher = more signal, called active from +8 up or from −8 down;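 further: probe is the protein aXip251-270 applied at 1 µg/mL to compound-printed slides; binding of probe to printed compounds measured as 667 nm fluorescence plus signal to noise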
The source made the active and inactive calls.
Reported composite Z-score values for a set of compounds

# annotated cases, reported composite Z-score shown
INSERT INTO assay_data (compound, reported_metric, value) VALUES
  ('O=C1c2ccccc2[C@@]2(Cc3ccccc3N(CCN3CCOCC3)C2=O)[C@H](c2ccc(CO)cc2)N1Cc1ccccc1', 'composite Z-score', '-0.117 (inactive)'),
  ('C#CCNC(=O)[C@H](Cc1ccccc1)NC(=O)CCC(=O)O', 'composite Z-score', '1.42 (inactive)'),
  ('COc1ccc([C@H]2C[C@H]3C(Br)=C[C@@H]2C(=O)[C@]32CO2)cc1', 'composite Z-score', '-0.624 (inactive)'),
  ('O=C1OCCC/C=C\[C@H]2OC34C=CCN(Cn5nnc6ccccc65)C(=O)[C@H]3N(CCCCCCO)C(=O)[C@@H]4C12 (stereo partly drawn)', 'composite Z-score', '0.236 (inactive)'),
  ('O=C1OCC=C[C@H]2OC34C=CCN(c5ccc6ccccc6c5)C(=O)[C@H]3N(CCCCCCO)C(=O)[C@@H]4[C@@H]12 (stereo partly drawn)', 'composite Z-score', '0.164 (inactive)'),
  ('CN1C(=O)C2C=CC(C(O)C3CC=CCC3)N(NC(=O)OC(C)(C)C)C2C1=O (stereo not drawn)', 'composite Z-score', '3.41 (inactive)');

Give the reported composite Z-score for this compound. CN1C(=O)C2C=CC(C(O)c3cc(C(F)(F)F)cc(C(F)(F)F)c3)N(N3CCCCC3)C2C1=O (stereo not drawn)
2.11 (inactive)

Given O=C1O[C@H](c2ccccc2)[C@H](c2ccccc2)N2[C@H]1[C@@H](C(=O)NC[C@H](O)c1ccccc1)[C@]1(C(=O)Nc3ccccc31)[C@H]2c1ccc(OCCO)cc1 , respond with its composite Z-score.
-0.249 (inactive)

Taken from PubChem BioAssay.
